// provenance: ChEMBL document CHEMBL3351269

procedure.summary: Inhibition of human coagulation chymotrypsin using MeO-Suc-Arg-Pro-Tyr-pNA as substrate by spectrophotometric analysis
pKi: −log10 of the molar value.
observation.type: pKi

Using the record for "NC[C@H]1CC[C@H](C(=O)N[C@@H](Cc2ccccc2)c2nc(-c3ccc4c(N)n[nH]c4c3)c(Cl)[nH]2)CC1.O=C(O)C(F)(F)F" , report its pKi. < 4.68

---

test.target: Plasma kallikrein (Homo sapiens)
Sequence (P03952 20-390 limits assumed): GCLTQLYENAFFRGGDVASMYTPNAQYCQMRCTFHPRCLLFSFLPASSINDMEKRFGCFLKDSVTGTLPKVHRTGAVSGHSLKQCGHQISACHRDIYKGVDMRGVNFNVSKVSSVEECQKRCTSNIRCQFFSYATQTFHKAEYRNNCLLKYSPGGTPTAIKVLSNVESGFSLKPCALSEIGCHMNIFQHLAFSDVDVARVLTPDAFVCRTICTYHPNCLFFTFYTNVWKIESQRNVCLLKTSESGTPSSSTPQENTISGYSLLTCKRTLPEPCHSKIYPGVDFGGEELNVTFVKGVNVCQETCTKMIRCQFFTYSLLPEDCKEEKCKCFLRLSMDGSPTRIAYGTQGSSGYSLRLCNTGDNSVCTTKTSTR
Sequence (P03952 391-638 limits assumed): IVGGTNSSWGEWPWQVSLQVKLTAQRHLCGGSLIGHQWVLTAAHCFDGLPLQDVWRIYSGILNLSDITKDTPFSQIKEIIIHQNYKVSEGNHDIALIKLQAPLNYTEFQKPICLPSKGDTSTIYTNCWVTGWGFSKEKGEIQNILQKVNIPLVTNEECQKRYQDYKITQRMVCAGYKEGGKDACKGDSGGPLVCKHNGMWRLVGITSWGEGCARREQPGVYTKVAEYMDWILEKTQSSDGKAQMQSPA
procedure.summary: Inhibition of human plasma kallikrein using H-D-Pro-Phe-Arg-pNA as substrate
observation.type: pKi
pKi here is simply -log10 of the concentration when that concentration is written in mol/L.

Item: "NC[C@H]1CC[C@H](C(=O)N[C@@H](Cc2ccccc2)c2nc(-c3cccc(CC(N)=O)c3)c[nH]2)CC1" Test system: Plasma kallikrein (Homo sapiens) Read-out: pKi Value: ? 5.72

---
Item: "NC[C@H]1CC[C@H](C(=O)N[C@@H](Cc2ccccc2)c2nn(-c3ccccc3)c(=O)[nH]2)CC1" Test system: Plasma kallikrein (Homo sapiens) Read-out: pKi Value: ? 5.32

Item: "NC[C@H]1CC[C@H](C(=O)N[C@@H](Cc2ccccc2)c2c[nH]c(-c3ccccc3)n2)CC1" Test system: Plasma kallikrein (Homo sapiens) Read-out: pKi Value: ? 5.35

Item: "CNC(=O)c1ccc(-c2c[nH]c([C@H](Cc3ccccc3)NC(=O)[C@H]3CC[C@H](CN)CC3)n2)cc1" Test system: Plasma kallikrein (Homo sapiens) Read-out: pKi Value: ? 6.66

---

test.target: Plasma kallikrein (Homo sapiens)
procedure.summary: Inhibition of human plasma kallikrein using H-D-Pro-Phe-Arg-pNA as substrate
Label Fulfilled when Ki < 0.9 µM; otherwise Not fulfilled.

Given the entry "NC[C@H]1CC[C@H](C(=O)N[C@@H](Cc2ccccc2)c2nc(-c3ccc(S(N)(=O)=O)cc3)c[nH]2)CC1" , would its reported Ki be below 0.9 µM? Not fulfilled

Given the entry "NC[C@H]1CC[C@H](C(=O)N[C@@H](Cc2ccccc2)c2nc(-c3ccccc3)c[nH]2)CC1.O=C(O)C(F)(F)F" , would its reported Ki be below 0.9 µM? Fulfilled

Given the entry "NC[C@H]1CC[C@H](C(=O)N[C@@H](Cc2ccccc2)c2nc(-c3ccc(C(N)=O)cc3)c(Cl)[nH]2)CC1.O=C(O)C(F)(F)F" , would its reported Ki be below 0.9 µM? Fulfilled

Now examine the next entry.
Given the entry "NC[C@H]1CC[C@H](C(=O)N[C@@H](Cc2ccccc2)c2nc(-c3ccccc3)n[nH]2)CC1" , would its reported Ki be below 0.9 µM? Not fulfilled
